# credit: the RNAGym collection of RNA variant scans (doi:10.1073/pnas.2313332121)

Please respond with reported polymerase ribozyme fitness (log ratio) for every item in the list.
B1: TPR 5TU (parent)
chain: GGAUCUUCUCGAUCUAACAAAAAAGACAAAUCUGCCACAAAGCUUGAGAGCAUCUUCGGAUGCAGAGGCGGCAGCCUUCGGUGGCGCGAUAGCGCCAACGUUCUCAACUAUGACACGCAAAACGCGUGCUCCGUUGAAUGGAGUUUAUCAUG

variants of: B1; experiment: polymerase ribozyme fitness, log enrichment relative to wild type (log ratio); higher = more active; in vitro selection for triplet polymerase activity
Fewer inactive variants are shown than the library holds.

Prompt: Query: polymerase ribozyme fitness (log ratio); subject: C57G G94C A98G C105U
Response: -0.386

Prompt: Query: polymerase ribozyme fitness (log ratio); subject: A39C G62A A66U U134G G143A
Response: ≤ -4.2

Prompt: Query: polymerase ribozyme fitness (log ratio); subject: A40G C76U C95U C116G
Response: -3.42

Prompt: Query: polymerase ribozyme fitness (log ratio); subject: A12G C93A
Response: -2.26

Prompt: Query: polymerase ribozyme fitness (log ratio); subject: C63G U78A C79U C85U A98G A106U U134C A142G U146A
Response: ≤ -4.2

Prompt: Query: polymerase ribozyme fitness (log ratio); subject: C18A A21U A52G C54U G92A C103A
Response: ≤ -4.2

Prompt: Query: polymerase ribozyme fitness (log ratio); subject: U53A G94A C125A U139C A142C
Response: ≤ -4.2

Prompt: Query: polymerase ribozyme fitness (log ratio); subject: U4A C38U A40U G42U A73G U82C G94U A107G
Response: ≤ -4.2

Prompt: Query: polymerase ribozyme fitness (log ratio); subject: C5G A23G G50C A52C C69G A119G
Response: ≤ -4.2

Prompt: Query: polymerase ribozyme fitness (log ratio); subject: A60G A91C C95U A110U C114U C118G A150U
Response: ≤ -4.2

Prompt: Query: polymerase ribozyme fitness (log ratio); subject: A60U C79U A98G C103A
Response: ≤ -4.2

Prompt: Query: polymerase ribozyme fitness (log ratio); subject: A21C C51U A66G C85G
Response: ≤ -4.2

Prompt: Query: polymerase ribozyme fitness (log ratio); subject: G50C A52C C54U G88A C96G
Response: ≤ -4.2

Prompt: Query: polymerase ribozyme fitness (log ratio); subject: A52G A64U G81A G86C G92A A122C G143C
Response: ≤ -4.2

Prompt: Query: polymerase ribozyme fitness (log ratio); subject: A26G C36A
Response: ≤ -4.2

Prompt: Query: polymerase ribozyme fitness (log ratio); subject: G70A U101C C103G C123U
Response: ≤ -4.2

Prompt: Query: polymerase ribozyme fitness (log ratio); subject: U56A U148G
Response: -3.6

Prompt: Query: polymerase ribozyme fitness (log ratio); subject: U56A C69U C129U
Response: -0.94

Prompt: Query: polymerase ribozyme fitness (log ratio); subject: C85G U135C A138C
Response: ≤ -4.2

Prompt: Query: polymerase ribozyme fitness (log ratio); subject: A21G A37U
Response: -0.976

Prompt: Query: polymerase ribozyme fitness (log ratio); subject: C8U A17C A28G C35U C76A C96U U144G
Response: -3.75

Prompt: Query: polymerase ribozyme fitness (log ratio); subject: C5A G50A C105U C116A
Response: -1.3
